# System: GENE-TOX genotoxicity assays, various organisms and cells
# PROCEDURE_SUMMARY: GENE-TOX mutagenicity studies
# SETTINGS: Species/Cell Type: Mammalian polychromatic erythrocytes; Assay Type: Micronucleus test, chromosome aberrations; Assay Code: MNT+; Evaluation Type: Evaluation B (Post-1980)
Activity calls are given as the source filed them. No rule for the calls is given here.
PROPERTY_NAME: mutagenic call

MOLECULE	PROPERTY_NAME	RECORDED_RESULT
Nc1ccn([C@@H]2O[C@H](CO)[C@@H](O)C2O)c(=O)n1 (some centres undefined)	mutagenic call	active; positive
C=CC(=O)OCC	mutagenic call	active; positive
C=CCc1ccc(O)c(OC)c1	mutagenic call	active; positive
CCCC(=O)Nc1ccc(OCC(O)CNC(C)C)c(C(C)=O)c1 (centres undefined)	mutagenic call	active; positive
O=P(OCC(Br)CBr)(OCC(Br)CBr)OCC(Br)CBr (centres undefined)	mutagenic call	active; positive
Nc1ccccc1N	mutagenic call	active; positive
CCN(CC)C(=O)/C(Cl)=C(\C)OP(=O)(OC)OC	mutagenic call	active; positive
CO[C@H](C)[C@](O)(C(=O)OCC1=CCN2CC[C@H](O)[C@@H]12)C(C)C	mutagenic call	active; positive
O=C1OC2(c3ccccc31)c1cc(I)c(O)c(I)c1Oc1c2cc(I)c(O)c1I	mutagenic call	active; positive
O[C@H]1[C@H]2c3cc4c(cc3CN3CCC(=C[C@@H]1O)[C@H]23)OCO4	mutagenic call	active; positive
N#CCC(=O)N/N=C/c1c[n+]([O-])c2ccccc2[n+]1[O-]	mutagenic call	active; positive
O=P(OCCCl)(OCCCl)OCCCl	mutagenic call	active; positive
O=C1NC(=O)C(c2ccccc2)(c2ccccc2)N1	mutagenic call	active; positive
COc1cc2c(c(O)c1OC)C13CCC(OC)CC1N(CC3)C2 (centres undefined)	mutagenic call	active; positive
O=C1[C@H]2CC=CC[C@H]2C(=O)N1SC(Cl)(Cl)Cl	mutagenic call	active; positive
C=C(C)[C@@H]1CCC(C)=C[C@H]1c1c(O)cc(CCCCC)cc1O	mutagenic call	active; positive
CCN(CC)CCCC(C)Nc1c2ccc(Cl)cc2nc2ccc(OC)cc12 (centres undefined)	mutagenic call	active; positive
CN(C)c1ccc2cc3ccc(N(C)C)cc3nc2c1	mutagenic call	active; positive
CN1CCN(CCCN2c3ccccc3Sc3ccc(C(F)(F)F)cc32)CC1	mutagenic call	active; positive
COc1c(O)c2c(c3cc(C(=O)N4CCc5c4c(O)c(OC)c4[nH]c(C(=O)N6C[C@H]7C[C@@]78C6=CC(=O)c6[nH]cc(C)c68)cc54)[nH]c13)CCN2C(N)=O	mutagenic call	active; positive
[O-][Br+2]([O-])O	mutagenic call	active; positive
O=c1c(O)c(-c2ccc(O)c(O)c2)oc2cc(O)cc(O)c12	mutagenic call	active; positive
CS(=O)(=O)OCCCCOS(C)(=O)=O	mutagenic call	active; positive
Clc1ccccc1	mutagenic call	active; positive
CC(N)Cc1ccccc1 (centres undefined)	mutagenic call	active; positive
[O]=[Cr](=[O])([OH])[O][Cr](=[O])(=[O])[OH]	mutagenic call	active; positive
Oc1cccc(O)c1O	mutagenic call	active; positive
CCN(Cc1cccc(S(=O)(=O)O)c1)c1ccc(C(=C2C=CC(=[N+](CC)Cc3cccc(S(=O)(=O)O)c3)C=C2)c2ccc(O)cc2S(=O)(=O)[O-])cc1	mutagenic call	active; positive
C=Cc1ccccc1	mutagenic call	active; positive
COc1ccc(CCC(=O)c2c(O)cc(O[C@@H]3O[C@H](CO)[C@@H](O)[C@H](O)[C@H]3O[C@@H]3O[C@@H](C)[C@H](O)[C@@H](O)[C@H]3O)cc2O)cc1O	mutagenic call	active; positive
C[C@H](N)C(=O)c1ccccc1	mutagenic call	active; positive
CCCCC1C(=O)N(c2ccccc2)N(c2ccccc2)C1=O	mutagenic call	active; positive
CC[C@]1(O)C[C@@H]2CN(CCc3c([nH]c4ccccc34)[C@@](C(=O)OC)(c3cc4c(cc3OC)N(C)[C@H]3[C@@](O)(C(=O)OC)[C@H](OC(C)=O)[C@]5(CC)C=CCN6CC[C@]43[C@@H]65)C2)C1	mutagenic call	active; positive
Clc1cccc(Cl)c1	mutagenic call	active; positive
CCOC(=O)CC(SP(=S)(OC)OC)C(=O)OCC (centres undefined)	mutagenic call	active; positive
O=C(O)C(Cl)(Cl)Cl	mutagenic call	active; positive
C=CCOc1ccccc1OCC(O)CNC(C)C (centres undefined)	mutagenic call	active; positive
O=NO	mutagenic call	active; positive
OCCN1CCN(CCCN2c3ccccc3Sc3ccc(C(F)(F)F)cc32)CC1	mutagenic call	active; positive
